# experiment-description: AUC (0 to infinity) in mouse at 2 mg/kg, iv
# Assay type: ADME, organism-based
# Set-up: time infinity, dose 2 mg/kg, route intravenous
# study-conditions: plasma
outcome-measure: AUC(0-inf)
# answer = value followed by unit

Query block: Fill in reported AUC(0-inf) for this entry: "CC(=O)N1CCC(n2cc(-c3cnc(N)c4oc(-c5cccc6cnsc56)cc34)cn2)CC1"
Result block: 261 ng·h/mL

###

# experiment-description: Metabolic stability in human liver microsomes assessed as extraction ratio
# Type: ADME, Microsome
# study-conditions: read-out: ERH
Assign class by hepatic extraction ratio: not lower than 0.7 means Condition met; lower than 0.7 means Condition not met.

// known answers, use as guide
compound-string	assigned-class
CC(=O)N1CCC(n2cc(-c3cnc(N)c4oc(-c5cn(C)c6cnccc56)cc34)cn2)CC1	Condition not met
CC(=O)N1CCC(n2cc(-c3cnc(N)c4oc(-c5cccc6ccccc56)cc34)cn2)CC1	Condition not met
CC(=O)N1CCC(n2cc(-c3cnc(N)c4oc(-c5cccc6cnsc56)cc34)cn2)CC1	Condition met
CC(=O)N1CCC(n2cc(-c3cnc(N)c4oc(-c5cnc6cnccn56)cc34)cn2)CC1	Condition not met

Turning to the following compound.
Query block: Hello, I need to know if "CC(=O)N1CCC(n2cc(-c3cnc(N)c4oc(-c5cccc6ncsc56)cc34)cn2)CC1" has measured hepatic extraction ratio not below 0.7. Thanks!
Result block: Condition not met

###

# experiment-description: Oral bioavailability in mouse at 20 mg/kg
# Format: ADME, organism-based
# study-conditions: in vivo
outcome-measure: bioavailability

Query block: Fill in reported bioavailability for this entry: "CC(=O)N1CCC(n2cc(-c3cnc(N)c4oc(-c5cccc6cnsc56)cc34)cn2)CC1"
Result block: 11%

###

# tested-on: Mitogen-activated protein kinase kinase kinase 7 (Homo sapiens)
# experiment-description: Inhibition of TAK1 in human HCT116 cells assessed as inhibition of TNF-alpha-stimulated JNK phosphorylation
Each record is given class 1 if its reported IC50 is strictly below 700 nM. Records at or above 700 nM are given class 0.

compound-string	assigned-class
CC(=O)N1CCC(n2cc(-c3cnc(N)c4oc(-c5csc6ccccc56)cc34)cn2)CC1	class 1
CC(=O)N1CCC(n2cc(-c3cnc(N)c4oc(-c5cccc(C(F)(F)F)c5)cc34)cn2)CC1	class 0
CC(=O)N1CCC(n2cc(-c3cnc(N)c4oc(-c5ccccc5CC#N)cc34)cn2)CC1	class 1

Turning to the following compound.
Query block: Is IC50 strictly under 700 nM for the entry "CC(=O)c1cccc(-c2cc3c(-c4cnn(C5CCN(C(C)=O)CC5)c4)cnc(N)c3o2)c1" ?
Result block: class 0

###

# experiment-description: Half life in mouse at 2 mg/kg, iv
# Type: ADME, organism-based
# Design: dose 2 mg/kg, route intravenous
# study-conditions: in vivo
outcome-measure: half-life

Query block: Fill in reported half-life for this entry: "CC(=O)N1CCC(n2cc(-c3cnc(N)c4oc(-c5cccc6cnsc56)cc34)cn2)CC1"
Result block: 30 min

###

Recorded measurements of pIC50, one per entry
# tested-on: Mitogen-activated protein kinase kinase kinase 7 (Homo sapiens, UniProt O43318)
# Sequence (O43318 whole entry): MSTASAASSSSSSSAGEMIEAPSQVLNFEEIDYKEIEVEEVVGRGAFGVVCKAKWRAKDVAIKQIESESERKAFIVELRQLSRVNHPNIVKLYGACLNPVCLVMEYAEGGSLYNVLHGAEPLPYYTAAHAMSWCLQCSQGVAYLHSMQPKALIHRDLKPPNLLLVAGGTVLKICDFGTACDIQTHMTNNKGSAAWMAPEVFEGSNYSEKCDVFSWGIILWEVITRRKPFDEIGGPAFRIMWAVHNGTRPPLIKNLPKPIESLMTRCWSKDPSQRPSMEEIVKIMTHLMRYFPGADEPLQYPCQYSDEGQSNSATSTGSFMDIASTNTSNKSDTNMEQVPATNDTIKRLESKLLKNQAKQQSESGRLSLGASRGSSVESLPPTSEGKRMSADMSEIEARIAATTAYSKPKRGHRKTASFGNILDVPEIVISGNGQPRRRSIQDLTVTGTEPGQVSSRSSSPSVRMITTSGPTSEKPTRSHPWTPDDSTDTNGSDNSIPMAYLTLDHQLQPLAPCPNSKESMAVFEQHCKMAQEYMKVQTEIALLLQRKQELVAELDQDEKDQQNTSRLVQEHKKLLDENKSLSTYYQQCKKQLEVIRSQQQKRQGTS
# experiment-description: Inhibition of TAK1 in human HCT116 cells assessed as inhibition of TNF-alpha-stimulated JNK phosphorylation
Recall that pIC50 is obtained by taking minus log10 of the concentration measured in molar.

Worked cases, pIC50 given:
compound-string	val
CC(=O)N1CCC(n2cc(-c3cnc(N)c4oc(-c5cccc(C#N)c5)cc34)cn2)CC1	6.43
COc1cccc(-c2cc3c(-c4cnn(C5CCN(C(C)=O)CC5)c4)cnc(N)c3o2)c1	5.92
CC(=O)N1CCC(n2cc(-c3cnc(N)c4oc(-c5ccccc5C#N)cc34)cn2)CC1	5.77

Query block: Fill in reported pIC50 for this entry: "CC(=O)N1CCC(n2cc(-c3cnc(N)c4oc(-c5cccc6cnsc56)cc34)cn2)CC1"
Result block: 7.36

Query block: Fill in reported pIC50 for this entry: "CC(=O)N1CCC(n2cc(-c3cnc(N)c4oc(-c5cccc6ncsc56)cc34)cn2)CC1"
Result block: 8.00

Source: ChEMBL document CHEMBL2407040
